Catalogue of GI50 values
- System: MALME-3M melanoma
- Method Notes: NCI tumour cell line growth inhibition, 48 h
Measured Metric: GI50

- CC(=O)OC12C=C(C)C(C(C)C1)C1C(=O)N(CCN3CCOCC3)C(=O)C12 (stereo unspecified): > 100 µM
- COc1cc2c(cc1OCCCn1c(-c3ccccn3)nc3ccccc31)N=C[C@@H]1CCCN1C2=O: 5.32 µM
- CC(C)NCCCn1c(Sc2cc3c(cc2I)OCO3)nc2c(N)ncnc21: 0.124 µM
- CCCCCCCCCCCCCCCCCC1=NCCN1CCOC1=C(Cl)C(=O)c2ccccc2C1=O: 1.95 µM
- C[C@@H]1CN(Cc2ccc(F)cc2)[C@@H](C)CN1C(=O)c1cc2c(C(=O)C(=O)N(C)C)cn(C)c2cc1Cl: 17.2 µM
- CNCCCNCCCCNCCCN1C(=O)c2ccc3c4c(ccc(c24)C1=O)C(=O)N(CCCNCc1ccccc1OC)C3=O: 0.939 µM
- CCCN(CCS(C)(=O)=O)Cc1ccc(-c2ccc3ncnc(Nc4ccc(OCc5cccc(F)c5)c(Cl)c4)c3c2)o1: > 25 µM
- C/C(=C\c1ccc2ccccc2c1)[N+](=O)[O-]: 2.07 µM
- O=C1CCC(N2Cc3cc(CNC(=O)C(F)(F)c4ccc(Cl)cc4)ccc3C2=O)C(=O)N1 (stereo unspecified): 0.105 µM
- O=C(/C=C\c1cccc([N+](=O)[O-])c1)/C=C/c1cccc([N+](=O)[O-])c1: 37.9 µM
- CCOC(=O)C1=C(C)N(c2ccc(Cl)cc2)[C@]2(C#N)C(O)=C(Cl)C(Cl)=C(O)[C@]12C#N: > 100 µM
- FC(F)(F)c1ccc(-c2cnc(-c3ncon3)nc2NC2CCCCCC2)cc1: 49.8 µM
- COc1ccc(-c2cc(-c3ccc(C)cc3)nc3nc(=S)[nH]c(N)c23)cc1: 26.7 µM
- O=C(O)CN1CCN(CC(=O)O)CC(=O)[O][Hg][O]C(=O)C1: 16.6 µM
- CC1=C2[C@@H](CC1)[C@]1(C)O[C@@](c3ccccc3)(C[C@H]1OC(=O)CO)[C@H]2OC(=O)/C=C/c1ccccc1: 20.1 µM
- CN1CCN(C(=O)c2cc(-c3ccc4ncnc(N5CCc6cc(F)c(Cl)cc65)c4c3)cnc2N)CC1: 0.123 µM
